target: Alkaline phosphatase, tissue-nonspecific isozyme (Homo sapiens, UniProt P05186); assay: potency against alkaline phosphatase TNAP – biochemical, luminescent, dose response, SAR follow-up (AID 1056)
Sequence (P05186 whole entry): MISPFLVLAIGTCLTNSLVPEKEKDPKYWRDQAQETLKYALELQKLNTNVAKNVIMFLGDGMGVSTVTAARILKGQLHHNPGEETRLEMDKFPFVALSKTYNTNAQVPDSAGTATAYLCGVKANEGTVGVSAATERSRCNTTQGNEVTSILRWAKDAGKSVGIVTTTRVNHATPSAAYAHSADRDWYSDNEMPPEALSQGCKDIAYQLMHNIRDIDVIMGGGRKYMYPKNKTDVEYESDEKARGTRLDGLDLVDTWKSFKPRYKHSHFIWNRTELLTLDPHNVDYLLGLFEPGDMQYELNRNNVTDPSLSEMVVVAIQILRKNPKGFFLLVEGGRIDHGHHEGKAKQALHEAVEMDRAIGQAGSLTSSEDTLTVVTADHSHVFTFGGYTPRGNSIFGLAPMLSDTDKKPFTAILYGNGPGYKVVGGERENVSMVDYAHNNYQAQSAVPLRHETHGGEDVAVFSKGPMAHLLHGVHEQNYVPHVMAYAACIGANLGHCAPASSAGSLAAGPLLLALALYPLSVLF
Active and inactive are the calls of the source.
Mark one answer only. Choices: active, inactive

**Q:** Give the logged outcome of this assay for the following compound: NCc1cc(-c2cccnc2)n[nH]1
**A:** inactive

**Q:** Okay, and Nc1nc(Cc2cccc(Br)c2)n(-c2ccccc2)n1 ?
**A:** inactive

**Q:** Okay, and COc1ccc(-c2nnc3oc(O)c(CCO)c(C)c2-3)cc1 ?
**A:** inactive

Please find the next compound below.
**Q:** Give the logged outcome of this assay for the following compound: Cc1cc(C)c(C#N)c(SCC(=O)c2ccc(O)c(O)c2)n1
**A:** active

###

target: Protein RecA (Mycobacterium tuberculosis, UniProt P9WHJ3); test: Fluorescence Cell-Free Homogeneous Dose Retest to Identify Inhibitors of RecA-Intein Splicing Activity. [Related pubchem assays (depositor defined):AID2097, AID2223, AID489010, AID492950]; assay type: functional
Active and inactive are the calls of the source.
Exercise: state measured EC50 for each of the compounds provided.

In the examples that follow, each entry is paired with its recorded EC50.
**Q:** Need EC50 of Cc1n[nH]c2c1C1(CCN(Cc3ccccc3)CC1)C(C#N)=C(N)O2 , thanks.
**A:** 1.07 µM (active)

**Q:** Okay, and O=C(CSC1=NCCS1)Nc1ccc(S(=O)(=O)N2CCCCCC2)cc1 ?
**A:** 10.1 µM (active)

**Q:** Okay, and O=C1C(Cc2ccccc2)Nc2ncnc(N3CCc4ccccc4C3)c2N1Cc1ccc(Cl)cc1 (centres undefined) ?
**A:** > 380 µM (inconclusive)

Provide EC50 values for the following items, in order.
1. COC(=O)[C@@H]1C[C@]2(OC(=O)c3ccccc3)C=CC(=O)C[C@@H]2N1C(=O)OCc1ccccc1
2. CCCCCn1c(NC(=O)c2ccco2)c(S(=O)(=O)c2ccc(C)cc2)c2nc3ccccc3nc21
3. Cc1ccc(CS(=O)(=O)c2ncc(Cl)c(C(=O)Nc3nnc(C)s3)n2)cc1
4. COc1cc(/C=C(\C#N)C(=O)Nc2ccc3c(c2)OCCO3)ccc1O
5. Cc1ccccc1NC1=C/C(=N\S(=O)(=O)c2ccc(C(=O)O)cc2)c2ccccc2C1=O
6. CC1=NN(c2ccccc2)C(=O)C1/C=C1\C(=O)NC(=O)N(c2ccc(C)c(C)c2)C1=O (centres undefined)

**A:**
1: 10.5 µM (active); 2: > 380 µM (inconclusive); 3: 16 µM (active); 4: 13.9 µM (active); 5: 3.67 µM (active); 6: 3.37 µM (active)

###

Entries below carry reported IC50 on Glyceraldehyde-3-phosphate dehydrogenase (Homo sapiens).
Sequence (P04406 whole entry): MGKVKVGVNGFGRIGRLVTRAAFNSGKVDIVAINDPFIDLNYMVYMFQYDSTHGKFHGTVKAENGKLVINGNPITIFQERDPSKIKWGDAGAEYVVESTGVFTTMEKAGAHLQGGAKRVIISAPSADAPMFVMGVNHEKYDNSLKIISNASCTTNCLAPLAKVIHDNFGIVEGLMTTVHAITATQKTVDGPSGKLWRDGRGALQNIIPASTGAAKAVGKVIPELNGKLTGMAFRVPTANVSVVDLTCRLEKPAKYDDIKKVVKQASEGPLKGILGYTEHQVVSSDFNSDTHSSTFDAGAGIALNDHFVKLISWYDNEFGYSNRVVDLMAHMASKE

**Q:** Need IC50 of Nc1nc(Cc2cccc(Br)c2)n(-c2ccccc2)n1 , thanks.
**A:** > 100 µM (not active)

**Q:** Okay, and O=S(=O)(Nc1ccc2ccccc2c1)c1cc(Cl)ccc1Cl ?
**A:** > 100 µM (not active)

**Q:** Okay, and COc1ccc(-c2nnc3oc(O)c(CCO)c(C)c2-3)cc1 ?
**A:** > 100 µM (not active)

**Q:** Okay, and NCc1cc(-c2cccnc2)n[nH]1 ?
**A:** > 100 µM (not active)

**Q:** Okay, and COc1cccc(N2C(=O)C(Cl)=C(N3CCN(Cc4ccccc4)CC3)C2=O)c1 ?
**A:** > 50 µM (inconclusive)

Turning to the following compound.
**Q:** Need IC50 of O=C1C(Cl)=C(N2CCN(Cc3ccc4c(c3)OCO4)CC2)C(=O)N1c1ccnc(Cl)c1 , thanks.
**A:** > 50 µM (inconclusive)

###

Exercise: state measured EC50 for each of the molecules provided.
test: NIH3T3 cell viability loss – ATP luminescence, mouse fibroblasts, counter-screen, dose response (AID 2010); assay type: functional, cell-based;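 note: cells exposed to compound for about 90 hours before reading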
Activity calls are given as the source filed them.

In the examples that follow, each entry is paired with its recorded EC50.
**Q:** Need EC50 of CCC(C)NC(=O)Cc1ccc(-c2ccccc2)cc1 (configuration not stated) , thanks.
**A:** > 60 µM (not active)

**Q:** Okay, and CC1C(c2ccccc2)N(C)C(c2ccccc2)CC1(O)c1ccc(F)cc1 (configuration not stated) ?
**A:** > 60 µM (not active)

**Q:** Okay, and N=C(N)N/N=C/c1ccc(OCc2ccc(Cl)cc2)cc1 ?
**A:** > 60 µM (inconclusive)

**Q:** Okay, and CNC(=O)c1ccsc1NC(=O)c1ccc(S(=O)(=O)N2CCCc3ccccc32)cc1 ?
**A:** > 60 µM (inconclusive)

Provide EC50 values for the following items, in order.
1. CCN(CC)c1ccc(/C=C/c2ccc3ccc(OC)cc3[n+]2CC)cc1
2. CCN1CCN(c2ccc(S(=O)(=O)N3CCCCC3)cc2NC(=O)Cc2ccccc2F)CC1
3. C/C(=N\N1C(=O)c2ccccc2NC1c1ccccc1)c1ccccc1O (configuration not stated)

**A:**
1: 5.54 µM (active); 2: > 30 µM (not active); 3: 7.4 µM (active)

###

molecular target: Corticotropin-releasing factor receptor 2/Corticotropin-releasing factor-binding protein (Homo sapiens, UniProt P24387+Q13324); assay: Dose Response confirmation of uHTS hits for small molecule antagonists of the CRF-binding protein and CRF-R2 receptor complex.; type: functional; details: read-out: IC50_Mean
Sequence (Q13324 whole entry): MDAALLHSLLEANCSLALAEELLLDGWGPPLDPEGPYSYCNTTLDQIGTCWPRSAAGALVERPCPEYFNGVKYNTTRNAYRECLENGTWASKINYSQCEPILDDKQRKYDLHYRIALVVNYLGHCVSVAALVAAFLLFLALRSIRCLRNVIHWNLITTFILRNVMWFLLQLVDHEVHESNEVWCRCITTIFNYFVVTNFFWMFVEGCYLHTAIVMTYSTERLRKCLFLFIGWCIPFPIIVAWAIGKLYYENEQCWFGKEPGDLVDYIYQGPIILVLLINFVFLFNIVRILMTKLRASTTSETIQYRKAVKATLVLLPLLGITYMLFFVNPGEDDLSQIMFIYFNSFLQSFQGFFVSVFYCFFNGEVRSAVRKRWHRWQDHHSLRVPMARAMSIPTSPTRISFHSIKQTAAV
Sequence (P24387 whole entry): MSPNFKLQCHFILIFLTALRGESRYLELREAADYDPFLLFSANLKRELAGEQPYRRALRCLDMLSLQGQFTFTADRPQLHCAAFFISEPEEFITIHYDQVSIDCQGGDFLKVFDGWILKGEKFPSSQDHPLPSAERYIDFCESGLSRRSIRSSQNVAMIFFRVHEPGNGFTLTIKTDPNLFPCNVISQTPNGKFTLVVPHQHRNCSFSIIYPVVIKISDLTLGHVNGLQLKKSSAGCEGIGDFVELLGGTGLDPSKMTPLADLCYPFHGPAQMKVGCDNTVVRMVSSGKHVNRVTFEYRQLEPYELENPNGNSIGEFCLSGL
The source made the active and inactive calls.
Mark one answer only. Choices: TRUE = active, FALSE = inactive

// below: answered compounds
**Q:** Give the logged outcome of this assay for the following compound: COC1(OC)C=CC(=O)C=C1NC(=O)c1ccccc1OC(C)=O
**A:** FALSE

**Q:** Okay, and O=C(CSc1nnnn1-c1ccccc1)NCCCN1CCCC1=O ?
**A:** FALSE

**Q:** Okay, and CS(=O)(=O)c1ccc(C(=O)CN2C(=O)NC3(CCCc4ccccc43)C2=O)cc1 (configuration not stated) ?
**A:** FALSE

**Q:** Okay, and Cc1cc(C)cc(N(C(=O)c2nsc(Cl)c2Cl)C(C(=O)NC2CCCC2)c2ccc(O)cc2)c1 (configuration not stated) ?
**A:** TRUE

**Q:** Okay, and O=C(/C=C/c1ccc2ccccc2n1)N1CCN(c2ccccc2)CC1 ?
**A:** FALSE

**Q:** Okay, and Cc1cccc(-c2nc(C[S+]([O-])CC(=O)N3CC(C)CC(C)C3)c(C)o2)c1 (configuration not stated) ?
**A:** FALSE

---
**Q:** Give the logged outcome of this assay for the following compound: CC(C)(C)NC(=O)C(c1ccccn1)N(C(=O)C1CSC(=O)C1)c1cccc(F)c1 (configuration not stated)
**A:** FALSE

###

assay: cells; type: functional, cell-based
Active and inactive are the calls of the source.
Exercise: state measured EC50 for each of the molecules provided.

In the examples that follow, each entry is paired with its recorded EC50.
**Q:** Need EC50 of COc1ccc(OC)c2sc(N3CCN(C(=O)c4ccc5ncsc5c4)CC3)nc12 , thanks.
**A:** > 350 µM (not active)

**Q:** Okay, and Cc1cc(C)n(CCC(=O)N/N=C/c2c(O)ccc3ccccc23)n1 ?
**A:** 9.7 µM (active)

Provide EC50 values for the following items, in order.
1. CCN(CC)S(=O)(=O)c1cccc(C(=O)N/N=C(\C)c2ccc(O)cc2O)c1
2. CCCCOc1ccc(C(=O)NCC(=O)OC2CCOC2=O)cc1 (centres undefined)

**A:**
1: 11.7 µM (active); 2: > 350 µM (not active)

###

Exercise: state measured EC50 for each of the molecules provided.
Target: Streptokinase A (Streptococcus pyogenes serotype M1)
Sequence (P10520 whole entry): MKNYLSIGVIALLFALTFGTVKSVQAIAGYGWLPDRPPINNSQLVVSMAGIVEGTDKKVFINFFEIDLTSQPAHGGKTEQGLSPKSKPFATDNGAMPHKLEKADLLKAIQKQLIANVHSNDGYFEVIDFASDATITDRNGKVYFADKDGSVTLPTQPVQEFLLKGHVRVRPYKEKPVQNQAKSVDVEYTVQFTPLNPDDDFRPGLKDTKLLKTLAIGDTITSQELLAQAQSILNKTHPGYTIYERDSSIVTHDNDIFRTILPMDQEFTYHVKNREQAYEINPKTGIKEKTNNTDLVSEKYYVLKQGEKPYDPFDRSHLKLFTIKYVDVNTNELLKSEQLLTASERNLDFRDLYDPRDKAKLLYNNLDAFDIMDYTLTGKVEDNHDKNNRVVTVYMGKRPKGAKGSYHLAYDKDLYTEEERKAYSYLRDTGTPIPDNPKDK
Assay: viability-normalized secreted streptokinase activity reduction – plasminogen activation absorbance, OD405, dose response (AID 1914);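 note: secreted streptokinase activity via plasminogen activation per viability signal from cell pellet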
Type: functional, Streptococcus pyogenes M1 GAS
Calls of active or inactive are those of the source.

In the examples that follow, each entry is paired with its recorded EC50.
**Q:** Need EC50 of O=C(Nc1cc(Cl)cc(Cl)c1)Nc1cnccn1 , thanks.
**A:** > 150 µM (not active)

**Q:** Okay, and Oc1c(N=Nc2ccccn2)ccc2ccccc12 ?
**A:** > 150 µM (not active)

Provide EC50 values for the following items, in order.
1. COC(=O)CSc1nnc(-c2cnccn2)n1C
2. COC(=O)c1ccc(NC(=O)c2nc(S(=O)(=O)Cc3cccc(C)c3)ncc2Cl)cc1
3. CCOC(=O)c1nc(Nc2ccc(Nc3ccccc3)cc2)c2ccccc2n1
4. COCCn1c(N)c(C(=O)NS(=O)(=O)c2ccc(C)cc2)c(=O)[nH]c1=O
5. Brc1ccc(-c2cn3c(n2)CCc2ccc4cccnc4c2-3)cc1
6. Oc1ccc(/C=N/n2c3ccccc3c3ccccc32)cc1

**A:**
> 150 µM (not active)
> 150 µM (not active)
> 150 µM (not active)
> 150 µM (not active)
23.8 µM (active)
> 150 µM (not active)

Provide EC50 values for the following items, in order.
1. O=C(Nc1cccc(-c2nnc(-c3ccccc3)o2)c1)c1ccc(Br)o1
2. CC1=NN(C(=Nc2ccc(C(C)(C)C)cc2)Nc2nnc(C)s2)[C@H](c2ccc(C)cc2)S1
3. COc1ccc(-c2cc(-c3ccc(C)cc3)[nH]n2)c(O)c1
4. Cc1ccc2sc(NNC(=O)c3ccc4c(c3)OCCO4)nc2c1C
5. O=C1NC(=Nc2ccccn2)SC1Cc1ccc(Cl)cc1 (stereo not drawn)
6. COc1ccc(Nc2ncnc3scc(-c4ccc(OC)cc4)c23)cc1
7. Cc1ccc2nc(-c3ccc(NS(=O)(=O)c4ccc(F)c(F)c4)cc3)sc2c1
8. O=S(=O)(Cc1cc(NCc2ccccc2)nc(-c2ccccn2)n1)c1ccccc1

**A:**
["> 150 µM (not active)", "13.9 µM (active)", "> 150 µM (not active)", "> 150 µM (not active)", "> 150 µM (not active)", "10.5 µM (active)", "5.1 µM (active)", "> 150 µM (not active)"]

Provide EC50 values for the following items, in order.
1. C[C@@H]1CC[C@@]2(OC1)O[C@H]1C[C@H]3[C@@H]4CC=C5C[C@@H](O)[C@H](O)C[C@]5(C)C4CC[C@]3(C)[C@H]1[C@@H]2C (stereo partly drawn)
2. Cc1cc2oc(=O)cc(CN(C)Cc3ccccc3Cl)c2cc1C

**A:**
1: > 150 µM (not active); 2: 14.4 µM (active)
